Molecular target: K18PL tau (Homo sapiens, UniProt P10636, P618L)
Construct: (K18PL; amino acids 244-369); made in house
Sequence (P10636 561-686 P618L): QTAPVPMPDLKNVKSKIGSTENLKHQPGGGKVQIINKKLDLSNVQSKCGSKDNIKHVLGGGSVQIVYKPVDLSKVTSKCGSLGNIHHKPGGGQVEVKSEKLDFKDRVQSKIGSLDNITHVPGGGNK
Assay: Heparin-induced K18PL tau fibrillization assay monitored by ThT fluorescence
Format: biochemical
Settings: Table 4; highest tested concentration (80 μM); read-out: Tau ThT Assay % Inhib.
reported metric: inhibition at 80 µM (%)

1. CCOC(=O)c1nn(-c2ccccc2Br)c(=O)c2c(N)scc12; 100
2. CC(C)NC(=O)c1nn(-c2ccc(O)cc2)c(=O)c2c(N)scc12; 86
3. CCOC(=O)c1nn(-c2ccc(OC(F)(F)F)cc2)c(=O)c2c(N)scc12; 41
4. CCOC(=O)c1nn(-c2cccc(Br)c2)c(=O)c2c(N)scc12; 87

(I) CC(C)NC(=O)c1nn(-c2cccc(Cl)c2)c(=O)c2c(N)scc12
(II) CCOC(=O)c1nn(-c2ccc(Cl)cc2)c(=O)c2c(NC)scc12
Between I and II , whose recorded inhibition at 80 µM is greater? I would appreciate it if you answered with the label of your choice.
I

(A) Nc1scc2c(C(=O)O)nn(-c3cccc(Cl)c3)c(=O)c12
(B) CCOC(=O)c1nn(-c2ccccc2F)c(=O)c2c(N)scc12
Record comparison, field inhibition at 80 µM: mark the lower of A and B . State your choice using its label.
B
(B: 48%, A: 92%)

---

Assay: Brain and plasma drug levels 1 h after i.p. administration (LC-MS/MS)
Assay type: in vivo
Settings: mice, 1 h after i.p. 5 mg/Kg
reported metric: B/P, ratio between brain/plasma drug level

1. CC(C)NC(=O)c1nn(-c2ccc(Br)cc2)c(=O)c2c(N)scc12; 2.0
2. CN(C)C(=O)c1nn(-c2ccc(Cl)cc2)c(=O)c2c(N)scc12; 0.44
3. CCN(C)C(=O)c1nn(-c2ccc(Cl)cc2)c(=O)c2c(N)scc12; 0.89

(1) CNC(=O)c1nn(-c2ccc(Cl)cc2)c(=O)c2c(N)scc12
(2) CC(C)NC(=O)c1nn(-c2ccc(Cl)cc2)c(=O)c2c(N)scc12
(3) Nc1scc2c(C(=O)O)nn(-c3ccc(Cl)cc3)c(=O)c12
Put the compounds in ascending order of B/P, ratio between brain/plasma drug level. Give the labels in the order requested.
3, 1, 2
(3: 0.023, 1: 0.49, 2: 2.2)

---

Target: full-length tau (tau40) (Homo sapiens, UniProt P10636)
Construct: Full length tau (Tau40; amino acids 1-441); made in house
Sequence (P10636 1-441 isoform P10636-8): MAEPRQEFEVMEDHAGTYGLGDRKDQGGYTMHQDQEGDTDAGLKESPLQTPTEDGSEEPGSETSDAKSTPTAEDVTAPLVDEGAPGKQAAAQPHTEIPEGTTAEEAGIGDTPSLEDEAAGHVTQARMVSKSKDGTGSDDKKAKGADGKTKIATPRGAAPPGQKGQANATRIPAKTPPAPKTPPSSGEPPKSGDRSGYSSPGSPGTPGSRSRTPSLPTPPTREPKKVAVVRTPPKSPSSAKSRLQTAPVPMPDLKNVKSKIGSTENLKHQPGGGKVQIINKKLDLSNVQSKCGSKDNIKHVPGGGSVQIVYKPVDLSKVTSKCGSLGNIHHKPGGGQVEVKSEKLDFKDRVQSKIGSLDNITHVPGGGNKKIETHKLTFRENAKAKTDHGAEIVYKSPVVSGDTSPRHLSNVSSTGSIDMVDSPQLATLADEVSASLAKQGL
Experiment: Tau40 fibrillization sedimentation assay
Assay type: biochemical
Settings: SDS-PAGE of soluble and insoluble fractions after centrifugation
reported metric: Tau40 Sed. Assay, maximal percent inhibition of tau40 fibrillization (%)

1) CN(C)C(=O)c1nn(-c2ccc(Cl)cc2)c(=O)c2c(N)scc12; 69
2) CCNC(=O)c1nn(-c2ccc(Cl)cc2)c(=O)c2c(N)scc12; 57
3) Nc1scc2c(C(=O)NC3CC3)nn(-c3ccc(Cl)cc3)c(=O)c12; 58
4) CCN(C)C(=O)c1nn(-c2ccc(Cl)cc2)c(=O)c2c(N)scc12; 58
5) CNC(=O)c1nn(-c2ccc(Cl)cc2)c(=O)c2c(N)scc12; 51
6) CC(C)NC(=O)c1nn(-c2ccc(Cl)cc2)c(=O)c2c(N)scc12; 45
7) CC(C)OC(=O)c1nn(-c2ccc(Cl)cc2)c(=O)c2c(N)scc12; 61
8) Nc1scc2c(C(=O)O)nn(-c3ccc(Cl)cc3)c(=O)c12; 62
9) CCOC(=O)c1nn(-c2ccc(Cl)cc2)c(=O)c2c(N)scc12; 48
10) CC(C)NC(=O)c1nn(-c2ccc(Br)cc2)c(=O)c2c(N)scc12; 55

Source of measurements: patent US20130029983A1
